Parameter: MIC. Scope: all listed entries.
System: Proteus vulgaris 3027
Test: MIC against standard strain, plate method
Assay type: cell-based
Details: Proteus vulgaris 3027, standard strain; unit assumed
Kindly provide the numeric value in µg/mL only, without the unit symbol.

compound="CN1CCN(C(=O)NC(C(=O)NC2C(=O)N3C2SC(C)(C)C3C(=O)OCCN2CCOCC2)c2ccccc2)C(=O)C1=O (single isomer, unassigned)" study_system="Proteus vulgaris 3027" val=0.79
compound="CCCCCCCCN1CCN(C(=O)NC(C(=O)NC2C(=O)N3C2SC(C)(C)C3C(=O)OCCN2CCOCC2)c2ccccc2)C(=O)C1=O (stereo not drawn)" study_system="Proteus vulgaris 3027" val=0.79
compound="CCCCN1CCN(C(=O)N[C@@H](C(=O)N[C@@H]2C(=O)N3[C@@H]2SC(C)(C)[C@@H]3C(=O)O)c2ccccc2)C(=O)C1=O (single isomer, unassigned)" study_system="Proteus vulgaris 3027" val=0.4
compound="CN1CCN(C(=O)NC(C(=O)NC2C(=O)N3C(C(=O)O)=C(CSc4nncn4C)CSC23)c2ccccc2)C(=O)C1=O (single isomer, unassigned)" study_system="Proteus vulgaris 3027" val=3.13
compound=C=CCN1CCN(C(=O)N[C@@H](C(=O)N[C@@H]2C(=O)N3[C@@H]2SC(C)(C)[C@@H]3C(=O)O)c2ccccc2)CC1=O study_system="Proteus vulgaris 3027" val=3.13

Look up MIC with Proteus vulgaris 3027 for this compound: CC(=O)N1CCN(C(=O)N[C@@H](C(=O)N[C@@H]2C(=O)N3[C@@H]2SC(C)(C)[C@@H]3C(=O)O)c2ccccc2)C(=O)C1C (stereo partly drawn)
3.13

Look up MIC with Proteus vulgaris 3027 for this compound: CCCN1CCN(C(=O)N[C@@H](C(=O)N[C@@H]2C(=O)N3[C@@H]2SC(C)(C)[C@@H]3C(=O)O)c2ccccc2)C(=O)C1=O (single isomer, unassigned)
0.4

Look up MIC with Proteus vulgaris 3027 for this compound: C=CC(C)N1CCN(C(=O)N[C@@H](C(=O)N[C@@H]2C(=O)N3[C@@H]2SC(C)(C)[C@@H]3C(=O)O)c2ccccc2)CC1=O (single isomer, unassigned)
12.5

Look up MIC with Proteus vulgaris 3027 for this compound: CCN1CCN(C(=O)NC(C(=O)NC2C(=O)N3C(C(=O)O)=C(COC(C)=O)CSC23)c2ccccc2)C(=O)C1=O (stereo not drawn)
3.13

###

System: Staphylococcus aureus
Assay: MIC against clinical isolates
Format: cell-based
Details: clinical isolate MS 8588; unit assumed
Measurement type: MIC

molecule="Cc1nnc(SCC2=C(C(=O)O)N3C(=O)C(NC(=O)C(NC(=O)N4CCN(C)C(=O)C4=O)c4ccccc4)C3SC2)s1 (single isomer, unassigned)" val="1.56 µg/mL"
molecule="CC(C)N1CCN(C(=O)N[C@@H](C(=O)N[C@@H]2C(=O)N3[C@@H]2SC(C)(C)[C@@H]3C(=O)O)c2ccccc2)C(=O)C1=O (single isomer, unassigned)" val="3.13 µg/mL"

Moving on to another molecule below.
Requested read-out: MIC. Entry: Cc1nnc(SCC2=C(C(=O)O)N3C(=O)[C@@H](NC(=O)Cn4cnnn4)[C@H]3SC2)s1 [Sodium Cephazolin, SodiumCephazolin, reference compound]
< 0.4 µg/mL

###

Parameter: MIC. Scope: all listed entries.
Test system: Shigella flexneri
Experiment: MIC against clinical isolates
Assay type: cell-based
Details: clinical isolate JS 11215; unit assumed

Illustrative cases are given below, each with its answer.
molecule=CCCCCCCCN1CCN(C(=O)N[C@@H](C(=O)N[C@@H]2C(=O)N3[C@@H]2SC(C)(C)[C@@H]3C(=O)O)c2ccccc2)C(=O)C1 measurement_type=MIC val="6.25 µg/mL"
molecule="CCCCCCN1CCN(C(=O)N[C@@H](C(=O)N[C@@H]2C(=O)N3[C@@H]2SC(C)(C)[C@@H]3C(=O)O)c2ccccc2)C(=O)C1=O (single isomer, unassigned)" measurement_type=MIC val="6.25 µg/mL"
molecule="CN1CCN(C(=O)N[C@@H](C(=O)N[C@@H]2C(=O)N3[C@@H]2SC(C)(C)[C@@H]3C(=O)O)c2ccccc2)C(=O)C1=O (single isomer, unassigned)" measurement_type=MIC val="> 200 µg/mL"

Requested read-out: MIC. Entry: CCN1CCN(C(=O)N[C@@H](C(=O)N[C@@H]2C(=O)N3[C@@H]2SC(C)(C)[C@@H]3C(=O)O)c2ccccc2)C(=O)C1=O
100 µg/mL

###

Test system: Shigella flexneri
Experiment: MIC against clinical isolates
Type: cell-based
Settings: clinical isolate JS 11215; unit assumed
Measurement type: MIC

compound="CCCCCCCCN1CCN(C(=O)N[C@@H](C(=O)N[C@@H]2C(=O)N3[C@@H]2SC(C)(C)[C@@H]3C(=O)O)c2ccccc2)C(=O)C1=O (single isomer, unassigned) [compound 47]" measurement_type=MIC val="6.25 µg/mL"

Requested read-out: MIC. Entry: CC1(C)S[C@@H]2[C@H](NC(=O)C(C(=O)O)c3ccccc3)C(=O)N2[C@H]1C(=O)O (stereo partly drawn) [Sodium Carbenicillum, reference compound]
> 200 µg/mL

Requested read-out: MIC. Entry: CC1(C)S[C@@H]2[C@H](NC(=O)C(c3ccccc3)S(=O)(=O)O)C(=O)N2[C@H]1C(=O)O (stereo partly drawn) [Sodium Sulbenicillum, reference compound]
> 200 µg/mL

###

Parameter: MIC. Scope: all listed entries.
Test system: Proteus vulgaris 3027
Test: MIC against standard strain, plate method
Type: cell-based
Conditions: Proteus vulgaris 3027, standard strain; unit assumed
Kindly provide the numeric value in µg/mL only, without the unit symbol.

compound=CC1(C)S[C@@H]2[C@H](NC(=O)[C@H](NC(=O)N3CCN(C(=O)Nc4ccccc4)C(=O)C3)c3ccccc3)C(=O)N2[C@H]1C(=O)O study_system="Proteus vulgaris 3027" val=3.13

Requested read-out: MIC. Entry: CC(C)CCN1CCN(C(=O)N[C@@H](C(=O)N[C@@H]2C(=O)N3[C@@H]2SC(C)(C)[C@@H]3C(=O)O)c2ccccc2)CC1=O
3.13

Requested read-out: MIC. Entry: CCCCN1CC(=O)N(C(=O)N[C@@H](C(=O)N[C@@H]2C(=O)N3[C@@H]2SC(C)(C)[C@@H]3C(=O)O)c2ccccc2)C(C)C1 (some centres unmarked)
6.25

Requested read-out: MIC. Entry: CCCCCC(=O)N1CCN(C(=O)N[C@@H](C(=O)N[C@@H]2C(=O)N3[C@@H]2SC(C)(C)[C@@H]3C(=O)O)c2ccccc2)C(=O)C1
6.25

Requested read-out: MIC. Entry: CN1CCN(C(=O)NC(C(=O)NC2C(=O)N3C(C(=O)O)=C(CSc4nncs4)CSC23)c2ccccc2)C(=O)C1=O (single isomer, unassigned)
3.13

###

Tested on: Pseudomonas aeruginosa
Assay: MIC against clinical isolates
Type: cell-based
Conditions: clinical isolate GN 2987; unit assumed
Measurement type: MIC (µg/mL)
Kindly provide the numeric value in µg/mL only, without the unit symbol.

compound="CC1(C)S[C@@H]2[C@H](NC(=O)C(C(=O)O)c3ccccc3)C(=O)N2[C@H]1C(=O)O (stereo partly shown) [Sodium Carbenicillin, SodiumCarbenicillin, reference compound]" val=50
compound="CCCCN1CCN(C(=O)N[C@@H](C(=O)N[C@@H]2C(=O)N3[C@@H]2SC(C)(C)[C@@H]3C(=O)O)c2ccccc2)C(=O)C1=O (single isomer, unassigned) [compound 39]" val=3.13
compound="CCCCN1CCN(C(=O)N[C@@H](C(=O)N[C@@H]2C(=O)N3[C@@H]2SC(C)(C)[C@@H]3C(=O)O)c2ccccc2)C(=O)C1 [compound 14]" val=12.5

Moving on to another compound below.
Requested read-out: MIC. Entry: Cc1nnc(SCC2=C(C(=O)O)N3C(=O)C(NC(=O)C(NC(=O)N4CCN(C)C(=O)C4=O)c4ccccc4)C3SC2)s1 (single isomer, unassigned) [compound 62]
50

###

Tested on: Pseudomonas aeruginosa
Experiment: MIC against clinical isolates
Format: cell-based
Conditions: clinical isolate GN 1091; unit assumed
Parameter: MIC. Scope: all listed entries.
Kindly provide the numeric value in µg/mL only, without the unit symbol.

compound="CCN1CCN(C(=O)NC(C(=O)NC2C(=O)N3C(C(=O)O)=C(COC(C)=O)CSC23)c2ccccc2)C(=O)C1=O (stereo not drawn) [compound 61]" measurement_type=MIC val=25
compound="CCCCCCN1CCN(C(=O)N[C@@H](C(=O)N[C@@H]2C(=O)N3[C@@H]2SC(C)(C)[C@@H]3C(=O)O)c2ccccc2)C(=O)C1 [compound 13]" measurement_type=MIC val=25

Moving on to another compound below.
Look up MIC with Pseudomonas aeruginosa for this compound: CCCCN1CCN(C(=O)N[C@@H](C(=O)N[C@@H]2C(=O)N3[C@@H]2SC(C)(C)[C@@H]3C(=O)O)c2ccccc2)C(=O)C1=O (single isomer, unassigned) [compound 39]
3.13

###

Tested on: Proteus vulgaris 3027
Experiment: MIC against standard strain, plate method
Format: cell-based
Conditions: Proteus vulgaris 3027, standard strain; unit assumed
Measurement type: MIC (µg/mL)
Kindly provide the numeric value in µg/mL only, without the unit symbol.

molecule="CC1(C)S[C@@H]2[C@H](NC(=O)[C@H](NC(=O)N3CCN(C4CCCC4)C(=O)C3)c3ccccc3)C(=O)N2[C@H]1C(=O)O (single isomer, unassigned)" unit=µg/mL val=6.25
molecule=CC1(C)S[C@@H]2[C@H](NC(=O)[C@H](NC(=O)N3CCN(Cc4ccccc4)C(=O)C3)c3ccccc3)C(=O)N2[C@H]1C(=O)O unit=µg/mL val=3.13

Look up MIC with Proteus vulgaris 3027 for this molecule: CC1(C)S[C@@H]2[C@H](NC(=O)[C@H](NC(=O)N3CCN(C(=O)c4ccccc4)CC3=O)c3ccccc3)C(=O)N2[C@H]1C(=O)O
6.25
